- System: HEK-293T
- method-description: Multiplex assay against HEK293T
- Type: toxicity, cell-based
- recorded-conditions: human, 48 h, 1 µM, compound concentration 1 uM, replicate 2
endpoint: Population Mitochondria Different-Phenotype (%)
Write it as a number; the unit % goes unstated.

INSERT INTO measurements (compound, assay_value) VALUES
  ('CN(C)C(=O)/C(C#N)=C/c1ccc(-c2nc3cnc4[nH]ccc4c3n2C2CCCCC2)o1', 5),
  ('CN(C)C(=O)N[C@H]1CC[C@H](CCN2CCN(c3cccc(Cl)c3Cl)CC2)CC1.Cl [CARIPRAZINE HYDROCHLORIDE]', 15),
  ('CN1CCN(CCOc2cc(OC3CCOCC3)c3c(Nc4c(Cl)ccc5c4OCO5)ncnc3c2)CC1', 32),
  ('C[C@@H](NCCCc1cccc(C(F)(F)F)c1)c1cccc2ccccc12.Cl [CINACALCET HYDROCHLORIDE]', 23),
  ('CN1CCN(c2ccc(OC(F)(F)F)c(Nc3ncc4c(n3)-c3c(c(C(N)=O)nn3CCO)CC4)c2)CC1', 30),
  ('C=CC(=O)Nc1ccc2ncnc(Nc3ccc(OCc4cccc(F)c4)c(Cl)c3)c2c1.Cc1ccc(S(=O)(=O)O)cc1', 4),
  ('COc1cccc([C@@H](C)NCCCc2ccccc2Cl)c1.Cl [TECALCET HYDROCHLORIDE]', 15),
  ('c1cn2cc(-c3ccc4cn[nH]c4c3)nc(Nc3ccc(N4CCOCC4)cc3)c2n1', 21);

Exam item: Report value: Population Mitochondria Different-Phenotype (%), system: HEK-293T, compound: `CC(C)(O)CNc1ncc(-c2ccnc(Nc3ccnc(Cl)c3)n2)c(CC2CC2)n1`
Marked response: 10

Exam item: Using HEK-293T as the test system, report measured Population Mitochondria Different-Phenotype (%) of `Cc1nc(-c2ccc(-c3ccc(C(=O)N4CCc5cc6c(cc54)C4(CCN(C)CC4)CO6)cc3)c(C)c2)no1` .
Marked response: 45
